Ref: patent US11739098B2

System: UniProtKB Q9NYK1
Sequence (Q9NYK1 27-1049): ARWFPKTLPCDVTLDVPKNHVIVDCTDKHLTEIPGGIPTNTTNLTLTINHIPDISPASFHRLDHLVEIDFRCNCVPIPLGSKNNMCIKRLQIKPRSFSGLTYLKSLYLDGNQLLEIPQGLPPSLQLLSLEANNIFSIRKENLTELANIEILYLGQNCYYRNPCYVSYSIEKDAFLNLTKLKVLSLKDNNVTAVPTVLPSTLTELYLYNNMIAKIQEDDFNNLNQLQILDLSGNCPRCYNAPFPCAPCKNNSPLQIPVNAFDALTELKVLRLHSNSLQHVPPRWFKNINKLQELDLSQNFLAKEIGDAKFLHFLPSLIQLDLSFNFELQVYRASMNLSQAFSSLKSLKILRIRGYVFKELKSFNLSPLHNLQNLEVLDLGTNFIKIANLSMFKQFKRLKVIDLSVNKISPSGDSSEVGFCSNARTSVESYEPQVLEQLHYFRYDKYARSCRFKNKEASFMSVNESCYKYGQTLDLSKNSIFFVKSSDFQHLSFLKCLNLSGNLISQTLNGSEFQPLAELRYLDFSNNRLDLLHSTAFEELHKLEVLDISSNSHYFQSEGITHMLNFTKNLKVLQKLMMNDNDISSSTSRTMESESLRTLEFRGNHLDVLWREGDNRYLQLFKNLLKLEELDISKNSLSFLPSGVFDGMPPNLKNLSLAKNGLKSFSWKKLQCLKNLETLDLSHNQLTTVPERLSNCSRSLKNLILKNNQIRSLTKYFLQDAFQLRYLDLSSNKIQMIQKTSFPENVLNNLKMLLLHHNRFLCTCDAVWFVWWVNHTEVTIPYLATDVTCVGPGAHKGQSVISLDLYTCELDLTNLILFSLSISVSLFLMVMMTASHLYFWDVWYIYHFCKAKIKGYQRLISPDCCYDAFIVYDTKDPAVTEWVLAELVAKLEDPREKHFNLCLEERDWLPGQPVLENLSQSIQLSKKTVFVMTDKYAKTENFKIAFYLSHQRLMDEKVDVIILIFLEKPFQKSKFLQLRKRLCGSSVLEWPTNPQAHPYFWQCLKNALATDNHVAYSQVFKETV
Protocol Notes: TLR7 inhibition reporter assay (HEK-Blue cells, SEAP reporter, gardiquimod stimulation)
Condition Notes: HEK-Blue cells overexpressing human TLR7, SEAP reporter, gardiquimod 7.5 μM
pIC50: −log10 of the molar value.
Value Kind: pIC50

| Molecule | pIC50 |
| --- | --- |
| CC(C)c1c(-c2ccnc3[nH]ncc23)[nH]c2ccc(C3CCN(C(=O)CCC(=O)N(C)C)CC3)cc12 [Example 613] | 6.00 to 7.00 |
| CC(C)c1c(-c2cn(C)c3ncncc23)[nH]c2ccc(C3CCN(C(=O)CN(C)C)CC3)cc12 [Example 456] | > 7.00 |
| COc1cc(-c2[nH]c3ccc(C4CCN(C(=O)CN(C)C)CC4)cc3c2C(C)C)cn2ccnc12 [Example 558] | > 7.00 |

Provide pIC50 for all items below, preserving their order.
1. Cc1cc(-c2[nH]c3ccc(C4CCN(CC(=O)N(C)C)CC4)cc3c2C(C)C)c(C)n2nnnc12 [Example 310]
2. FC(F)Cc1c(-c2ccn3ccnc3c2)[nH]c2ccc(C3CCNCC3)cc12 [Example 189]

1. > 7.00
2. > 7.00

Provide pIC50 for all items below, preserving their order.
1. Cc1nc(CN2CCC(c3ccc4[nH]c(-c5ccnc6[nH]ncc56)c(C(C)C)c4c3)CC2)c2ccccn12 [Example 868]
2. Cc1nnn2ccc(-c3[nH]c4ccc(C5CCN(Cc6ncn(C)n6)CC5)cc4c3C(C)C)cc12 [Example 889]

1: > 7.00; 2: > 7.00
